The following compounds are shown together with reported Turns values.
# EXPERIMENTAL TARGET: BSA (Bos taurus, UniProt P02769)
# Construct: purchased Millipore Sigma-Aldrich
# Sequence (P02769 25-607): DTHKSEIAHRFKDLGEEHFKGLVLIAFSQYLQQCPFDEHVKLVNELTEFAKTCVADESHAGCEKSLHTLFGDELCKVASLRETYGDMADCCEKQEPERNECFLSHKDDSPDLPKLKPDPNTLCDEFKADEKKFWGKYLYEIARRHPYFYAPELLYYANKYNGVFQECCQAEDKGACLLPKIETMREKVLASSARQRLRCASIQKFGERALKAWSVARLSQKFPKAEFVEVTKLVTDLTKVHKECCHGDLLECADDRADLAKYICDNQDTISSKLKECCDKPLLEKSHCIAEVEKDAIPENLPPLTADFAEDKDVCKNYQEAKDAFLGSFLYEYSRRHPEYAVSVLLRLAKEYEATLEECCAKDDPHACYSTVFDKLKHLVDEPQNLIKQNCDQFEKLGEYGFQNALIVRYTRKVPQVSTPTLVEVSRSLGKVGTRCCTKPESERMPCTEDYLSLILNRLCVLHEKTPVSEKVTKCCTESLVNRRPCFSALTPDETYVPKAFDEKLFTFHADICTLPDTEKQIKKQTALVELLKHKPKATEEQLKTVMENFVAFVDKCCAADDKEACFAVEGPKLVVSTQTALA
# EXPERIMENT NOTES: Far-UV CD secondary structure of BSA (CONTIN-LL deconvolution)
# Assay type: physicochemical, bovine
# Design: unit not given here
# DETAILS: 1.0 mg/mL BSA, 90 mM component, 25 °C
OBSERVABLE: Turns

INSERT INTO results (compound, experimental_value) VALUES
  ('OC[C@H]1O[C@@](CO)(O[C@H]2O[C@H](CO)[C@@H](O)[C@H](O)[C@H]2O)[C@@H](O)[C@@H]1O [Sucrose, sucrose]', 0.137),
  ('CCn1cc[n+](C)c1.O=S(=O)([O-])C(F)(F)C(F)(F)C(F)(F)C(F)(F)F', 0.142),
  ('CCCCn1cc[n+](C)c1.O=S(=O)([O-])C(F)(F)F [[C4C1Im][CF3SO3]]', 0.136),
  ('C[N+](C)(C)CCO.O=S(=O)([O-])C(F)(F)C(F)(F)C(F)(F)C(F)(F)F [[N1112(OH)][C4F9SO3]]', 0.152),
  ('C[N+](C)(C)CCO.C[N+](C)(C)CCO.O=P([O-])(O)O.O=P([O-])(O)O [[N1112(OH)][H2PO4]]', 0.145);

###

# EXPERIMENTAL TARGET: BSA (Bos taurus)
# Construct: purchased Millipore Sigma-Aldrich
# EXPERIMENT NOTES: Far-UV CD secondary structure of BSA (CONTIN-LL deconvolution)
# Type: physicochemical, bovine
# Parameters: unit not given here
# DETAILS: 1.0 mg/mL BSA, 120 mM component, 25 °C
The following compounds are shown together with reported Regular Alpha Helix values.
OBSERVABLE: Regular Alpha Helix

INSERT INTO measurements (compound, observable, experimental_value) VALUES
  ('C[N+](C)(C)CCO.O=S(=O)([O-])C(F)(F)C(F)(F)C(F)(F)C(F)(F)F [[N1112(OH)][C4F9SO3]]', 'Regular Alpha Helix', 0.400),
  ('C[N+](C)(C)CCO.C[N+](C)(C)CCO.O=P([O-])(O)O.O=P([O-])(O)O [[N1112(OH)][H2PO4]]', 'Regular Alpha Helix', 0.396),
  ('CCn1cc[n+](C)c1.O=S(=O)([O-])C(F)(F)C(F)(F)C(F)(F)C(F)(F)F', 'Regular Alpha Helix', 0.405);

###

The following compounds are shown together with reported Tm values.
# EXPERIMENTAL TARGET: BSA (Bos taurus, UniProt P02769)
# Construct: purchased Millipore Sigma-Aldrich
# EXPERIMENT NOTES: DSC thermal unfolding of BSA in water and aqueous solutions of ABS phase-forming components
# Assay type: physicochemical, bovine
# DETAILS: 1.0 mg/mL BSA, 10 mM component
OBSERVABLE: Tm (°C)

INSERT INTO results (compound, experimental_target, observable, readout_unit, experimental_value) VALUES
  ('C[N+](C)(C)CCO.C[N+](C)(C)CCO.O=P([O-])(O)O.O=P([O-])(O)O [[N1112(OH)][H2PO4]]', 'BSA (Bos taurus, UniProt P02769)', 'Tm', '°C', 73.90),
  ('CCCCn1cc[n+](C)c1.O=S(=O)([O-])C(F)(F)F [[C4C1Im][CF3SO3]]', 'BSA (Bos taurus, UniProt P02769)', 'Tm', '°C', 79.02),
  ('CCn1cc[n+](C)c1.O=S(=O)([O-])C(F)(F)C(F)(F)C(F)(F)C(F)(F)F', 'BSA (Bos taurus, UniProt P02769)', 'Tm', '°C', 80.94);
